SYSTEM: T1, Scribble PDZ3 R1044Q (human, UniProt Q14160 1002-1094, R1044Q)
T1 sequence (looked up): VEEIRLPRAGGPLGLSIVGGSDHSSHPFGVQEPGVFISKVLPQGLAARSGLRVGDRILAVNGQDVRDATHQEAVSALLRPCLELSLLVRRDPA
PROCEDURE_DETAILS: ITC
pKd: −log10 of the molar value.

{"BINDER": "RSWFETWV [superpeptide (synthetic pan-PDZ binding peptide)]", "pKd": 5.14}
